molecular target: CRK SH2 domain (Homo sapiens, UniProt P46108); assay: FP saturation binding; conditions: result in words
Sequence (P46108 13-118 limits assumed): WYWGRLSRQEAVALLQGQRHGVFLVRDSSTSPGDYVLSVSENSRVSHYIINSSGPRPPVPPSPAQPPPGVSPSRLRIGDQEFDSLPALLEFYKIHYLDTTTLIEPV
Readout Kind: recruitment of CRK SH2 domain

[
  {
    "Substance": "VITEXCCYGDLLd [c-Kit Tyr(P)-672]",
    "Readout Kind": "recruitment of CRK SH2 domain",
    "Experimental Value": "recruited"
  },
  {
    "Substance": "DVWSXGIFLWELd [c-Kit Tyr(P)-855]",
    "Readout Kind": "recruitment of CRK SH2 domain",
    "Experimental Value": "recruited"
  },
  {
    "Substance": "EYCCXGDLLNFLd [c-Kit Tyr(P)-675]",
    "Readout Kind": "recruitment of CRK SH2 domain",
    "Experimental Value": "recruited"
  }
]

---

target: Shp2/PTPN11 SH2 domain (Homo sapiens); assay: FP saturation binding, construct not stated; conditions: result in words
Readout Kind: recruitment of Shp2/PTPN11 SH2 domain

[
  {
    "Substance": "CVAPXPSLLSSEd [c-Met Tyr(P)-1365]",
    "Experimental Value": "recruit"
  },
  {
    "Substance": "LQPEXCPDPLYEd [c-Met Tyr(P)-1307]",
    "Experimental Value": "recruit"
  },
  {
    "Substance": "DITVXLLQGRRLd [c-Met Tyr(P)-1295]",
    "Experimental Value": "recruit"
  }
]

---

target: PLCG1 SH2 domains (Homo sapiens, UniProt P19174); assay: FP saturation binding, construct not stated; settings: result in words
Sequence (P19174 550-756 limits assumed): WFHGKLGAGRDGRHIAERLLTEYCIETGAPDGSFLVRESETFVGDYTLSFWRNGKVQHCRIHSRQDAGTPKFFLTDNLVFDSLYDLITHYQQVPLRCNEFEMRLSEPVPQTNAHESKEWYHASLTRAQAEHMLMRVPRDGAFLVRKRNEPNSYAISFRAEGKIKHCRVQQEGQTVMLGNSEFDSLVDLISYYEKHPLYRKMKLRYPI
Readout Kind: recruitment of PLCG1 SH2 domains

[
  {
    "Substance": "SQDCXDIPRAFPd [GAB1 Tyr(P)-406]",
    "Tested On": "PLCG1 SH2 domains (Homo sapiens, UniProt P19174)",
    "Experimental Value": "confirmed"
  },
  {
    "Substance": "LPIDXYFPPQKTd [AR Tyr(P)-551]",
    "Tested On": "PLCG1 SH2 domains (Homo sapiens, UniProt P19174)",
    "Experimental Value": "recruitment sites"
  },
  {
    "Substance": "VSISXDIPPTPGd [GAB1 Tyr(P)-307]",
    "Tested On": "PLCG1 SH2 domains (Homo sapiens, UniProt P19174)",
    "Experimental Value": "confirmed"
  },
  {
    "Substance": "TDSSXCIPTAGMd [GAB1 Tyr(P)-373]",
    "Tested On": "PLCG1 SH2 domains (Homo sapiens, UniProt P19174)",
    "Experimental Value": "confirmed"
  },
  {
    "Substance": "PIDYXFPPQKTCd [AR Tyr(P)-553]",
    "Tested On": "PLCG1 SH2 domains (Homo sapiens, UniProt P19174)",
    "Experimental Value": "recruitment sites"
  }
]

Task: Please tell me: recruitment of PLCG1 SH2 domains of VKPIXFHTQ [AR Tyr(P)-915] , system PLCG1 SH2 domains (Homo sapiens, UniProt P19174)?
Result: recruitment sites

---

biological target: RASA1 SH2 domains (Homo sapiens); test: FP saturation binding, construct not stated; details: result in words
Sequence (P20936 181-441 limits assumed): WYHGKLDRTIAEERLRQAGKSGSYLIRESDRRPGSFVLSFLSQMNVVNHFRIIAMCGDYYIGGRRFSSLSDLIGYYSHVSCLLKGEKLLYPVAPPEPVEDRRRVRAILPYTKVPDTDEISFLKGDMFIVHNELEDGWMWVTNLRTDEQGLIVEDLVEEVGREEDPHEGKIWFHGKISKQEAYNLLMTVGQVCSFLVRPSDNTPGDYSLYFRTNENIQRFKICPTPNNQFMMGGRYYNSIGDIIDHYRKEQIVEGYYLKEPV

[
  {
    "Substance": "VSISXDIPPTPGd [GAB1 Tyr(P)-307]",
    "Tested On": "RASA1 SH2 domains (Homo sapiens)",
    "recruitment of RASA1 SH2 domains": "confirmed"
  },
  {
    "Substance": "PGNTXQIPRTFPd [GAB1 Tyr(P)-317]",
    "Tested On": "RASA1 SH2 domains (Homo sapiens)",
    "recruitment of RASA1 SH2 domains": "confirmed"
  }
]
